Below, each entry is listed alongside its reported TGI.
- Test system: SNB-75 CNS
- method: NCI tumour cell line growth inhibition, 48 h
Provide only the numeric value, understood in µM.

Below are worked cases with known answers.
{"molecularString": "O=c1c2cccc3cccc(c4oc5c6cccc7cccc(c(=O)c5c14)c76)c32", "testedOn": "SNB-75 CNS", "readoutUnit": "µM", "TGI": 21.7}
{"molecularString": "O=C(/C=C/c1ccc(Cl)c(Cl)c1)c1ccc(F)cc1", "testedOn": "SNB-75 CNS", "readoutUnit": "µM", "TGI": 58.3}
{"molecularString": "NC1=C(Br)C(=O)c2ncccc2C1=O", "testedOn": "SNB-75 CNS", "readoutUnit": "µM", "TGI": 0.664}

// query Record lookup: for SNB-75 CNS, what TGI belongs to COc1ccc2cc1Oc1ccc(cc1)C[C@@H]1c3cc(c(OC)cc3CCN1C)Oc1c(OC)c(OC)cc3c1[C@@H](C2)N(C)CC3 ?
// result 23.7

====

Below, each entry is listed alongside its reported TGI.
- Tested on: UACC-62 melanoma
- method: NCI tumour cell line growth inhibition, 48 h

Below are worked cases with known answers.
{"molecule": "O=C1/C(=C/c2ccc3c(c2)OCO3)CCC1CN1CCOCC1 (centres undefined)", "TGI": "20.5 µM"}
{"molecule": "Cc1ccc2cc3c(ccc4ccccc43)c3c2c1CC3", "TGI": "> 100 µM"}
{"molecule": "CN=CN(C)c1c2ccccc2nc2ccccc12", "TGI": "> 100 µM"}
{"molecule": "C=CC(C)(C)C(=C)C(=O)N(C)c1ccccc1I", "TGI": "> 100 µM"}
{"molecule": "OCC1OC(Oc2cc(O)cc(/C=C/c3ccc(O)cc3)c2)C(O)C(O)C1O (centres undefined)", "TGI": "> 100 µM"}
{"molecule": "C=CC1=C[C@@H]2[C@@H]3O[C@]4(CC[C@H](O4)[C@@H](C)C[C@@H](O)C3=O)C[C@H](O)C3=NCC[C@@]32CC1", "TGI": "0.00412 µM"}
{"molecule": "c1ccc(C(c2ccccc2)[P+](c2ccccc2)(c2ccccc2)c2ccccc2)cc1", "TGI": "3.56 µM"}
{"molecule": "CCN(CC)c1ccc(C2SCC(=O)N2c2ccc(NC(=O)c3ccc(N4C(=O)CSC4c4ccc(N(CC)CC)cc4)cc3)cc2)cc1 (centres undefined)", "TGI": "> 100 µM"}

Consider the record given below.
// query Quick check: TGI of N#CCC(=O)c1cc(OCc2cc(OCc3ccc(Br)cc3)cc(OCc3ccc(Br)cc3)c2)cc(OCc2cc(OCc3ccc(Br)cc3)cc(OCc3ccc(Br)cc3)c2)c1 ?
// result > 100 µM

====

- Tested on: HOP-92 NSCLC
- method: NCI tumour cell line growth inhibition, 48 h
reportedMetric: GI50

Below are worked cases with known answers.
{"molecule": "C[C@H]1[C@H](C)CC[C@]2(C(=O)N3CCN(C)CC3)CC[C@]3(C)C(=CC[C@@H]4[C@@]5(C)C/C(=C/c6cccnc6)C(=O)C(C)(C)[C@@H]5CC[C@]43C)[C@H]12", "GI50": "446 nM"}
{"molecule": "CCN1CCN(CC(=O)Nc2nc3ccc(NCc4ccc(Cl)cc4)cc3s2)CC1", "GI50": "1120 nM"}

Consider the record given below.
// query Record lookup: for HOP-92 NSCLC, what GI50 belongs to COc1cc(C(O)c2nc3ccccc3s2)cc(OC)c1OC (stereo not drawn) ?
// result 1150 nM
